Each recorded value in this set is attributed to paper PMC8953086.

biological target: NleB (Citrobacter rodentium, UniProt A0A482PDI9); assay: biochemical
Sequence (A0A482PDI9 whole entry, looked up): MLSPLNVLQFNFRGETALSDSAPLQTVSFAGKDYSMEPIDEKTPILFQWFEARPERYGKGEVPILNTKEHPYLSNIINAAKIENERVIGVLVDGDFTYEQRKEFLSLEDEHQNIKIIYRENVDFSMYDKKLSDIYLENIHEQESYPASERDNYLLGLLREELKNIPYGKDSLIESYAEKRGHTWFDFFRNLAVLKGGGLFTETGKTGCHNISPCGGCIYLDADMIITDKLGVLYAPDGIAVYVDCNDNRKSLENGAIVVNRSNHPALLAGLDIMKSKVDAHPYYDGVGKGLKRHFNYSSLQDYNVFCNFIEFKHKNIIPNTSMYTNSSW
pIC50: −log10 of the molar value.
assay.metric: pIC50

Return reported pIC50. Input compound: CC(C)c1cc(C(C)C)c(CC(=O)NS(=O)(=O)Oc2c(C(C)C)cccc2C(C)C)c(C(C)C)c1 ~5.00
